Target: eIF4E:eIF4G interaction (Homo sapiens)
Sequence (P06730 2-217 limits assumed): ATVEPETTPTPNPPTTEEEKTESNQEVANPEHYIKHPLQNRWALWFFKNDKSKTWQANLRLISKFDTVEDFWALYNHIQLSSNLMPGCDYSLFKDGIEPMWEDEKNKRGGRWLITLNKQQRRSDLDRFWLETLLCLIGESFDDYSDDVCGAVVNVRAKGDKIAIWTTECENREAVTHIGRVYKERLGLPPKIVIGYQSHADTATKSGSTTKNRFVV
Experiment: Electro-chemiluminescent binding assay, eIF4E:eIF4G, HeLa cell lysates
Format: biochemical
Set-up: endogenous in cells; host or cells: HeLa cells (lysates)
Conditions: HeLa cell lysates, n = 4; read-out: Inhibition of PPI in HeLa cells: eIF4E-eIF4G interaction
PARAMETER MEASURED: EC50 (nM)
Quick reminder: number only, in nM, skip the unit.

Item CC[C@H](O[C@H](C)CO)c1ccc(-c2ccccc2F)cc1NCCO [Compound 4] with eIF4E:eIF4G interaction (Homo sapiens) - EC50? 1400

###

Biological target: eIF4E–4E-BP1 interaction (Homo sapiens, UniProt P06730)
Assay: Electro-chemiluminescent binding assay, eIF4E:4E-BP1, HeLa cell lysates
Conditions: read-out: Inhibition of PPI in HeLa cells: eIF4E–4E-BP1 interaction; HeLa cell lysates, values in parentheses
PARAMETER MEASURED: EC50

>>> df
                               smiles_input  parameter_measured  experimental_result
0  CC[C@@H](O[C@H](C)CO)c1ccc(-c2ccccc2F)cc1NCCO                EC50             > 100 µM

Suppose we examine the molecule `CC[C@H](O[C@H](C)CO)c1ccc(-c2ccccc2F)cc1NCCO` ; what EC50 value has been reported? > 100 µM
